Where do the numbers come from? From patent US20250327793A1.

# system-tested: Olfr1322 (Mus musculus, UniProt Q7TQW3)
# Sequence (Q7TQW3 1-310): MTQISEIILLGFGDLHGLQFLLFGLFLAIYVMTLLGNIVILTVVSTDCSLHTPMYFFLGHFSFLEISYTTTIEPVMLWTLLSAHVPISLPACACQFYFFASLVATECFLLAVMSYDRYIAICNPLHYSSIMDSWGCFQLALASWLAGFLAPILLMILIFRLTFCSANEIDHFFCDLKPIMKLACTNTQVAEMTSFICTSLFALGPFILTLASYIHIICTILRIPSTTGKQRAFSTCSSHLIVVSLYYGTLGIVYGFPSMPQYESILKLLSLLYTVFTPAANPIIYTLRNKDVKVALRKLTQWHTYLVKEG
# assay-summary: Geonol concentration-dependent activation of Olfr1322: OR-dependent cAMP accumulation in a cell-based assay (functional dose-response)
# condition-details: agonist, mouse Olfr1322 (SEQ ID NO: 73), N-terminal FLAG/Rho/Lucy tags, HEK 293T cells, Gαolf, FIG. 5
observation-type: EC50 (µM)
Form entry: value (µM) — number only.

Prompt line: Identify the measured EC50 of CC1CCCC2(C)CCCCC12O (stereo not shown) [Geonol] for Olfr1322 (Mus musculus, UniProt Q7TQW3).
Response line: 37.5

----------
# system-tested: OR11A1 (Homo sapiens, UniProt Q9GZK7)
# Sequence (Q9GZK7 whole entry): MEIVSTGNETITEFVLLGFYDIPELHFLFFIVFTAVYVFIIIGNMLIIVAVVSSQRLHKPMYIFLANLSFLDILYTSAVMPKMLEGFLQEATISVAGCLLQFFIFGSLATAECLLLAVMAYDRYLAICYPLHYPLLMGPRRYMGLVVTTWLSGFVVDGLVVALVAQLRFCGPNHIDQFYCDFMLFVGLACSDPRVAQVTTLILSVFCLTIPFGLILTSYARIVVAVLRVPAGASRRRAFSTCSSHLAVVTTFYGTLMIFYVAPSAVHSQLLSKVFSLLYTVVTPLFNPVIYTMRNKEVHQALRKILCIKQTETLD
# assay-summary: Geonol concentration-dependent activation of OR11A1: OR-dependent cAMP accumulation in a cell-based assay (functional dose-response)
# condition-details: agonist, human OR11A1 (SEQ ID NO: 12), HEK293T cells expressing Golf, FIG. 5
# Text: The detection method pertains to OR-dependent accumulation of cAMP in said cells, as a result of OR activation by geonol. In a further embodiment, to complete the deorphanization process, the candidate OR genes are further expressed in vitro for confirmation of activity against the compounds used to isolate the olfactory sensory neurons and other structurally-related compounds of interest. […]
observation-type: pEC50
Conceptually, pEC50 converts a concentration in mol/L into minus its log10.

Prompt line: Need pEC50 of CC1CCCC2(C)CCCCC12O (stereo not shown) , thanks.
Response line: 5.55

----------
# system-tested: Olfr641 (Mus musculus, UniProt Q8VGX6)
# Sequence (Q8VGX6 1-312): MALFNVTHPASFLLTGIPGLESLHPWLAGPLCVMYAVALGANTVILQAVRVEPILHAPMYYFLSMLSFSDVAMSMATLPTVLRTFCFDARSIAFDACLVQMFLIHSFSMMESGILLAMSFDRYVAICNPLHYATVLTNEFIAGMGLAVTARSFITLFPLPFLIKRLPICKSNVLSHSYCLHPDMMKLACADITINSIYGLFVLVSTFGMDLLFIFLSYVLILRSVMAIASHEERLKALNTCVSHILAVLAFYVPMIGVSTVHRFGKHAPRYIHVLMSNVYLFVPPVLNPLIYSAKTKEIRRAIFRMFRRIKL
# assay-summary: 3-methyl-2-hexenoic acid concentration-dependent activation of Olfr641: OR-dependent cAMP accumulation in a cell-based assay (functional dose-response)
# condition-details: agonist, mouse Olfr641 (SEQ ID NO: 34), N-terminal FLAG/Rho/Lucy tags, HEK 293T cells, Gαolf, FIG. 8
observation-type: pEC50
In textbook form, pEC50 equals minus log to base ten of the concentration in mol/L.

Prompt line: Requested field: pEC50. Item: CCCC(C)=CC(=O)O
Response line: 5.76

----------
# system-tested: Olfr263 (Mus musculus, UniProt Q7TQT8)
# Sequence (Q7TQT8 1-317): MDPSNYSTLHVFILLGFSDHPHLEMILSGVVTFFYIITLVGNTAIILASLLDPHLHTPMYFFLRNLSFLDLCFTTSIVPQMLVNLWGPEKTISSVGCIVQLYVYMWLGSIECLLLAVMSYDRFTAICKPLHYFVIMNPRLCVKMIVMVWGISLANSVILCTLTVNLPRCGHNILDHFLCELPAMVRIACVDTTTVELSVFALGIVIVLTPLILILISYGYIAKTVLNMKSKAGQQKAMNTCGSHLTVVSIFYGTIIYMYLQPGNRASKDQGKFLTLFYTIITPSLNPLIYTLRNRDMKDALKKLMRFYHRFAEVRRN
# assay-summary: Concentration-dependent activation of Olfr263: OR-dependent cAMP accumulation in a cell-based assay (functional dose-response)
# condition-details: agonist 3-methyl-2-hexenoic acid, mouse Olfr263 (SEQ ID NO: 22), N-terminal FLAG/Rho/Lucy tags, HEK 293T cells, Gαolf, FIG. 8
# Excerpt: The detection method pertains to OR-dependent accumulation of cAMP in said cells, as a result of OR activation by transpirol. […] Neurons that were activated by DMTS were further isolated for full transcriptome analysis to identify the responsive odorant receptor. […] Amplified cDNA was then used to generate an Illumina cDNA library for Next-Generation-Sequencing and the generation of 100 base pair single read sequences. […]
observation-type: EC50 (µM)
Please state the figure in µM; there is no need to write the unit.

Prompt line: Lab request: please report EC50 under test system Olfr263 (Mus musculus, UniProt Q7TQT8) for CCCC(C)=CC(=O)O
Response line: 183

----------
# system-tested: OR2W1 (Homo sapiens, UniProt Q9Y3N9, M81V)
# Sequence (Q9Y3N9 whole entry M81V): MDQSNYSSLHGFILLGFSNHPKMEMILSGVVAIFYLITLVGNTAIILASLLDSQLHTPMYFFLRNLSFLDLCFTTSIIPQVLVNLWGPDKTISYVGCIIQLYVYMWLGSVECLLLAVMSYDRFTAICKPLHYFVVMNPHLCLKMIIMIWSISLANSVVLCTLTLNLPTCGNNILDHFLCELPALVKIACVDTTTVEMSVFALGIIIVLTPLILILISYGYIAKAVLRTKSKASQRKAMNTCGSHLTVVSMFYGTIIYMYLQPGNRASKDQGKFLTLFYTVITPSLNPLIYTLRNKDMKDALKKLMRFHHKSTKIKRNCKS
# assay-summary: Concentration-dependent activation of OR2W1: OR-dependent cAMP accumulation in a cell-based assay (functional dose-response)
# Parameters: expressed in transfected cells; host or cells: HEK293T
# condition-details: agonist 3-methyl-2-hexenoic acid, human OR2W1 (SEQ ID NO: 2), HEK293T cells expressing Golf, FIG. 8
observation-type: EC50 (µM)
Your answer should be a plain number; it is taken to be in µM.

Prompt line: Item CCCC(C)=CC(=O)O [3-methyl-2-hexenoic acid] with OR2W1 (Homo sapiens, UniProt Q9Y3N9, M81V) - EC50?
Response line: 214

----------
Consider the following compounds; for each one, report its IC50.
# system-tested: OR51E1 olfactory receptor (Homo sapiens, UniProt Q8TCB6, K299R)
# Construct: expressed in transfected cells
# Sequence (Q8TCB6 2-318 K299R limits assumed): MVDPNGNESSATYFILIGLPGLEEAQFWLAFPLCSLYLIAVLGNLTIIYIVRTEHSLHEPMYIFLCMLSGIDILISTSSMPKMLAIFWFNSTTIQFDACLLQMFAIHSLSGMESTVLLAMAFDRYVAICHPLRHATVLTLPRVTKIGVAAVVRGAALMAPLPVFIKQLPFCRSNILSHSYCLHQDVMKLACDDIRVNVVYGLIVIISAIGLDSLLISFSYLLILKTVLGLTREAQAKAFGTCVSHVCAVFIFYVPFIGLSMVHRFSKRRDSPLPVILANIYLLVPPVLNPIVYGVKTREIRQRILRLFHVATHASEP
# assay-summary: Butyric acid olfactory receptor antagonist cell-based inhibitory dose-response assay
# condition-details: Table 4; butyric acid at single activating concentration (EC94)
Kindly provide the numeric value in µM only, without the unit symbol.

Prompt line: # lookup: IC50 of CC1=CC(C)C2(CCCC(C)(C)C2=O)C1 (stereo not drawn)
Response line: 110

Prompt line: Given the compound CC1=C(C)CC2(CCCC(C)(C)C2OC=O)C1 (stereo not drawn) , what is its reported IC50?
Response line: 25.9

Prompt line: Which IC50 value belongs to C=C(C)CC1(CC(=C)C)CCC(C)(C)C1=O ?
Response line: 51.7

Prompt line: Endpoint output: IC50 of CC(=O)OC1C(C)(C)CCCC12CC=C(C)CC2C (stereo not drawn) . Value?
Response line: 71.4

Prompt line: Quick one: IC50 for CC1C=CCC12CCCC(C)(C)C2=O (stereo not drawn) [4,9,9-trimethylspiro[4.5]dec-2-en-10-one] ?
Response line: 268

Prompt line: Given CC(=O)OC1C(C)(C)CCCC12CC=CC2C (stereo not drawn) , state its recorded IC50.
Response line: 48.5

Prompt line: Request the reported IC50 associated with CC1CC2(CCCC(C)(C)C2O)CC1C (stereo not drawn) [2,3,9,9-tetramethylspiro[4.5]decan-10-ol]
Response line: 120

Prompt line: Could you share which IC50 value was measured for CC(=O)OC1C(C)(C)CCCC12CC(C)=CC2C (stereo not drawn) ?
Response line: 34.8

Prompt line: What value of measured IC50 is listed for CC(=O)OC1C(C)(C)CCCC12CC(C)(C)C(C)(C)C2 (stereo not drawn) ?
Response line: 425

Prompt line: Quick one: IC50 of COC1C(C)(C)CCC12CC=CC2 (stereo not drawn) ?
Response line: 238

Prompt line: Returns the measured IC50 for the input compound. Input: CC(=O)OC(C1C(C)C=C(C)CC1C)C(C)(C)C (stereo not drawn)
Response line: 52.6

Prompt line: Report IC50 for C=C1C(C)(C)CCCC12CC1(C)OC1(C)C2 (stereo not drawn) please.
Response line: 75.7

Prompt line: Record request: IC50 value, item C[C@H]1CCCC2(CCCC[C@@H]2C)[C@@H]1O (single isomer, unassigned)
Response line: 76.9

Prompt line: For C=CCC1(C(C)C=C)CCCC(C)(C)C1=O (stereo not drawn) , what is its reported IC50?
Response line: 76.4

Prompt line: Recorded IC50 for CC1CCCCC12CCCCC2O (stereo not drawn) [11-methylspiro[5.5]undecan-5-ol] , please?
Response line: 68.8

Prompt line: Reported IC50, compound CC(=O)O[C@H]([C@H]1CCCC[C@@H]1C)C(C)(C)C (racemic) : ____
Response line: 170

Prompt line: Record request: IC50 value, item CC1(C)CCCC2(CC=CC2)C1O (stereo not drawn) [9,9-dimethylspiro[4.5]dec-2-en-10-ol]
Response line: 44.1

Prompt line: Which measured IC50 value corresponds to CC(=O)OC1C(C)(C)CCCC12CC(C)C(C)C2 (stereo not drawn) ?
Response line: 51.4

Prompt line: Dear colleague, I am looking for the recorded IC50 of the following compound: CC(=O)OC1C(C)(C)CCCC12CC=CC2 (stereo not drawn)
Response line: 90.3

Prompt line: Quick check: IC50 of CC1=CCC2(CCCCC2O)C(C(C)C)C1 (stereo not drawn) ?
Response line: 366

Prompt line: For CC1C=CCC(C)C1C(O)C(C)(C)C (stereo not drawn) , what is its reported IC50?
Response line: 321

Prompt line: Which IC50 is listed for CC1=C(C)CC2(CCCC(C)(C)C2O)C1 (stereo not drawn) ?
Response line: 78.7

Prompt line: Query (compound): CC1(C)CCCC2(CC=CC2)C1=O [9,9-dimethylspiro[4.5]dec-2-en-10-one] ; field requested: IC50
Response line: 135

----------
Assignment: determine reported Inhibition (%) for the given molecules.
# system-tested: OR51E1 olfactory receptor (Homo sapiens, UniProt Q8TCB6, K299R)
# Construct: expressed in transfected cells
# assay-summary: Butyric acid olfactory receptor antagonist cell-based inhibitory dose-response assay
# condition-details: Table 5; agonist concentration not given

Prompt line: Request the reported Inhibition (%) associated with CC(=O)OC(C)C1(C)CC(C)C23CCC(CC12)C3 (stereo not drawn)
Response line: 34%

Prompt line: # input molecule: CC(=O)C1(C)CC(C)C23CCC(CC12)C3 (stereo not drawn) ; wanted: its Inhibition (%)
Response line: 26%

Prompt line: Which Inhibition (%) is reported for this molecule? CC1C(C)C23CCC(CC2C1(C)C=O)C3 (stereo not drawn)
Response line: 28%

Prompt line: State the recorded Inhibition (%) for this entry: CC(=NO)C1C(C)C(C)C23CCC(CC12)C3 (stereo not drawn)
Response line: 19%

Prompt line: # Inhibition (%) lookup, item CC(=O)OC(C)C1CC(C)C23CCC(CC12)C3 (stereo not drawn)
Response line: 23%

Prompt line: What measured Inhibition (%) goes with CC(=O)OCC1(C)C(C)C(C)C23CCC(CC12)C3 (stereo not drawn) ?
Response line: 27%
